- tgt: RSV F protein (purified) (respiratory syncytial virus)
- assay-summary: SPR (BIAcore), F protein immobilised
Record class 1 whenever koff is at 0.0003 s⁻¹ or higher; record class 0 when lower.

- binder: "P12f2 Fab (Fab, V domains shown) VH: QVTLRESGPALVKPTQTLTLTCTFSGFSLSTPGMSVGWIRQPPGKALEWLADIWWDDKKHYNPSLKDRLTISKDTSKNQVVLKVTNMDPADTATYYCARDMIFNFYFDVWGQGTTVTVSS VL: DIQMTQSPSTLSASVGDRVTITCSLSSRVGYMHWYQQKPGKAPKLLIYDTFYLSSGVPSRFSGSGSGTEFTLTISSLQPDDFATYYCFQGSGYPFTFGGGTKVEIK"
  cat: "class 0"
- binder: "Y10H6 Fab (Fab, V domains shown) VH: QVTLRESGPALVKPTQTLTLTCTFSGFSLSTAGMSVGWIRQPPGKALEWLADIWWDDKKDYNPSLKSRLTISKDTSKNQVVLKVTNMDPADTATYYCARDMIFNWYFDVWGQGTTVTVSS VL: DIQMTQSPSTLSASVGDRVTITCSASSSVGYMHWYQQKPGKAPKLLIYDTRYLSSGVPSRFSGSGSGTEFTLTISSLQPDDFATYYCFQGSGYPFTFGGGTKVEIK"
  cat: "class 1"
- binder: "P11d4 Fab (Fab, V domains shown) VH: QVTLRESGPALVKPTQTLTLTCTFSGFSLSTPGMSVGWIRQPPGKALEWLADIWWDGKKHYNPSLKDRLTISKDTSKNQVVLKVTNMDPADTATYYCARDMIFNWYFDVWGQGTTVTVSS VL: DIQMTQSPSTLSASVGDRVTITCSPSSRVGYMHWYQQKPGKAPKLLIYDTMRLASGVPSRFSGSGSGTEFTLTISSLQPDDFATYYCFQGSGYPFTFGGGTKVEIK"
  cat: "class 1"
- binder: "A13a11 Fab (Fab, V domains shown) VH: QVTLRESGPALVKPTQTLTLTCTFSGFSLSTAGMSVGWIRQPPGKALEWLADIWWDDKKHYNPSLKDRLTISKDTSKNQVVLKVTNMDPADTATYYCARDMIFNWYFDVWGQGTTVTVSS VL: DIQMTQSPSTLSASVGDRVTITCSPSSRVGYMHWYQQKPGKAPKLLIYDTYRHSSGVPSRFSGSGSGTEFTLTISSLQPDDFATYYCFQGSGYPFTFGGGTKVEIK"
  cat: "class 0"

Consider the record given below.
Is koff for A12a6 Fab (Fab, V domains shown) VH: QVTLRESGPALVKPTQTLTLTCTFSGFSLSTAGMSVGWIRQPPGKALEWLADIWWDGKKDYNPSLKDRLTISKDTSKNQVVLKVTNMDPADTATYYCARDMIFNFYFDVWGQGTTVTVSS VL: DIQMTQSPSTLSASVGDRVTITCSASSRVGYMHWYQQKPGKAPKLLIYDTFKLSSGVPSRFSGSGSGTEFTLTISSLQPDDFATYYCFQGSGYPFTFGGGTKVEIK at or above 0.0003 s⁻¹?
class 0

All values here come from patent US20110158985A1.
